Record set of pIC50 for target or system UniProt P43490.
One number for each entry, as −log10 of the molar value.

| compound | pIC50 |
| --- | --- |
| O=C(NCc1ccn2ccnc2c1)Nc1ccc(O[C@@H]2CCN(C(=O)C3CCOCC3)C2)cc1 [Example 333] | 9.46 |
| O=C(CC1CCCC1)Nc1ccc(C(=O)NCc2ccc3nccn3c2)c(F)c1 [Example 462] | 9.58 |
| COCCC(=O)N(CCC(C)C)c1ncc(C(=O)NCc2ccc3nccn3c2)s1 [Example 61] | 9.26 |
| O=C(NCc1ccn2ccnc2c1)c1ccc(C2CCN(C(=O)c3cc(F)ccc3F)CC2)cc1 [Example 522] | 9.70 |
| N#Cc1cccc(C(=O)N2CC(c3ccc(C(=O)NCc4ccn5ccnc5c4)cc3)C2)c1 [Example 653] | 9.05 |

Record pIC50 per entry; entries follow.
1. CC(C)Cn1cc(-c2ccc(C(=O)NCc3ccn4ccnc4c3)cc2)cn1 [Example 315]
2. COc1cccc(C(=O)N2CC(c3ccc(C(=O)NCc4ccn5ccnc5c4)cc3)C2)c1 [Example 654]
3. CC[C@H](C)C(=O)NC1(c2ccc(C(=O)NCc3ccn4ccnc4c3)s2)COC1 [Example 408]
4. O=C(NCc1ccn2ccnc2c1)c1ccc(C2CCN(C(=O)c3ccccn3)C2)cc1 (centres unmarked) [Example 611]

Result ::
[9.49, 9.02, 9.14, 9.21]

Record pIC50 per entry; entries follow.
1. CC(C)CCC(=O)Nc1ccc(NC(=O)Nc2ccc3nccn3c2)cc1 [Example 47]
2. CC(C)N1CCN(c2ncc(C(=O)NCc3ccn4ccnc4c3)s2)CC1 [Example 356]
3. O=C(NCc1ccn2ccnc2c1)c1ccc(C2CCN(C(=O)c3ccccc3OC(F)(F)F)CC2)cc1 [Example 706]
4. O=C(NCc1ccn2ccnc2c1)c1ccc(C2CN(C(=O)c3cccc(Cl)c3)C2)cc1 [Example 646]
5. O=C(NCc1ccc2nccn2c1)c1ccc(-c2cnn(CC3CCOC3)c2)s1 (centres unmarked) [Example 200]
6. O=C(NCc1ccn2ccnc2c1)Nc1ccc(C2CCN(C(=O)c3cccc(F)c3)CC2)cc1 [Example 720]

Result ::
9.21
9.77
9.03
9.29
9.32
9.74

Record pIC50 per entry; entries follow.
1. O=C(NCc1ccc2nccn2c1)c1cnc(N2CCC(c3ccccc3)C2)s1 (centres unmarked) [Example 86]
2. CC1(C(=O)N2CCC(c3ccc(C(=O)NCc4ccn5ccnc5c4)cc3)C2)CCCCC1 (centres unmarked) [Example 614]
3. O=C(NCc1ccc2nccn2c1)c1ccc(OC2CCN(C(=O)C3COCCO3)CC2)cc1 (centres unmarked) [Example 163]
4. O=C(NCc1ccn2ccnc2c1)c1ccc(-c2cnn(CC3(F)CCOCC3)c2)s1 [Example 698]
5. CC(C)CC(=O)N1CCC(c2ccc(C(=O)NCc3ccn4ccnc4c3)cc2)C1 (centres unmarked) [Example 601]

Result ::
7.92
9.17
8.20
9.20
9.17

* * *

measuredOn: NAMPT (human, recombinant, C-terminally His-tagged) (Homo sapiens)
measurementProtocol: Time-Resolved Fluorescence Resonance Energy Transfer (TR-FRET) Binding Assay of NAMPT
testSettings: without substrates; 6.8 nM NAMPT, 200 nM probe, 3 hours equilibration
experimentalReadout: pIC50
Numbers only, as −log10 of the molar value.

| compound | measuredOn | testResult |
| --- | --- | --- |
| CC(C)(C)OC(=O)N1CCC(c2ccc(C(=O)Nc3ccn4ccnc4c3)cc2)CC1 [Example 322] | NAMPT (human, recombinant, C-terminally His-tagged) (Homo sapiens) | 5.22 |
| CC(C)(C)CC(=O)N1CCC(c2ccc(C(=O)NCc3ccn4ccnc4c3)cc2)CC1 [Example 499] | NAMPT (human, recombinant, C-terminally His-tagged) (Homo sapiens) | 6.95 |
| CC(C)(C)CC(=O)N1CCC(c2ccc(C(=O)NCc3ccn4ccnc4c3)cc2)C1 (centres unmarked) [Example 602] | NAMPT (human, recombinant, C-terminally His-tagged) (Homo sapiens) | 6.10 |
| O=C(CCC1CCCC1)Nc1ccc(NC(=O)NCc2ccn3ccnc3c2)cc1 [Example 281] | NAMPT (human, recombinant, C-terminally His-tagged) (Homo sapiens) | 8.26 |

Record pIC50 per entry; entries follow.
1. CC(C)Cn1cc(-c2ccc(C(=O)NCc3ccc4nccn4c3)o2)cn1 [Example 120]
2. CC(C)CC(=O)N1CC=C(c2ccc(C(=O)NCc3ccn4ccnc4c3)o2)CC1 [Example 745]
3. CC(C)(O)C(=O)N1CCC(c2ccc(C(=O)NCc3ccn4ccnc4c3)cc2)C1 (centres unmarked) [Example 372]
4. CC1(Cn2cc(-c3ccc(C(=O)NCc4ccn5ccnc5c4)s3)cn2)CCCCO1 (centres unmarked) [Example 465]
5. CC(C)C[C@H](NC(=O)C1CC1)c1ccc(C(=O)NCc2ccn3ccnc3c2)s1 [Example 687]

Result ::
[7.13, 6.00, 5.61, 7.86, 7.01]

Record pIC50 per entry; entries follow.
1. CC1(C(=O)N2CCC(c3ccc(C(=O)NCc4ccn5ccnc5c4)s3)C2)CC1 (centres unmarked) [Example 795]
2. O=C(NCc1ccn2ccnc2c1)Nc1ccc(C2CCN(C(=O)C3CCOCC3)CC2)cc1 [Example 221]
3. CC(C)(C)OC(=O)N1CCC(O)(c2ccc(C(=O)NCc3ccn4ccnc4c3)s2)CC1 [Example 403]

Result ::
[7.05, 6.92, 5.81]

The observed pIC50 for N#Cc1ccc(C(=O)N2CCC(c3ccc(C(=O)NCc4ccn5ccnc5c4)cc3)CC2)cc1 [Example 520] when tested with NAMPT (human, recombinant, C-terminally His-tagged) (Homo sapiens) stands at 6.25

* * *

Record set of pIC50 for target or system NAMPT (Homo sapiens).
One number for each entry, as −log10 of the molar value.

| compound | pIC50 |
| --- | --- |
| Cn1cc(CCC(=O)N(C[C@H]2CCCO2)c2ncc(C(=O)NCc3ccn4ccnc4c3)s2)cn1 [Example 198] | 9.65 |
| O=C(NCc1ccn2ccnc2c1)c1ccc(C2CN(C(=O)c3cccs3)C2)cc1 [Example 552] | 9.27 |
| O=C(NCc1ccn2ccnc2c1)Nc1ccc(C2CCN(C(=O)CC3CCOCC3)CC2)cc1 [Example 223] | 9.45 |
| COCCC(=O)N(CC1CCOC1)c1ncc(C(=O)NCc2ccc3nccn3c2)s1 (centres unmarked) [Example 139] | 9.76 |
| CC(C)CCC(=O)Nc1ccc(NC(=O)NCc2ccc3nccn3c2)cc1 [Example 274] | 9.71 |
| O=C(NCc1ccn2ccnc2c1)Nc1ccc(C2CCN(C(=O)C3CCOCC3)CC2)cc1 [Example 221] | 9.45 |
| O=C(NCc1ccn2ccnc2c1)c1ccc(C2CCN(C(=O)C3CCOC3)CC2)s1 (centres unmarked) [Example 261] | 9.64 |
| CC(C)(O)Cn1cc(-c2ccc(C(=O)NCc3ccn4ccnc4c3)o2)cn1 [Example 483] | 9.24 |

Record pIC50 per entry; entries follow.
1. CC1(C(=O)N2CCC(c3ccc(C(=O)NCc4ccn5ccnc5c4)s3)C2)CC1 (centres unmarked) [Example 795]
2. O=C(NCc1ccn2ccnc2c1)c1ccc(C2CN(C(=O)C3CCCCC3)C2)cc1 [Example 660]
3. O=C(NCc1ccn2ccnc2c1)Nc1ccc(C2CCN(C(=O)CC3CCCO3)CC2)cc1 (centres unmarked) [Example 225]

Result ::
1: 9.12; 2: 9.16; 3: 9.17

* * *

Record set of pIC50 for target or system NAMPT (Homo sapiens, UniProt P43490).
Answers are plain numbers, as −log10 of the molar value.

Previously resolved entries follow.
| compound | measuredOn | testResult |
| --- | --- | --- |
| O=C(NCc1ccc2nccn2c1)c1cnc(N(CC2CCCO2)C(=O)CCc2cc(Cl)no2)s1 (stereo not shown) | NAMPT (Homo sapiens, UniProt P43490) | 9.02 |
| O=C(NCc1ccn2ccnc2c1)c1ccc(C2CCN(C(=O)CC(F)(F)F)C2)s1 (stereo not shown) | NAMPT (Homo sapiens, UniProt P43490) | 9.52 |
| O=C(NCCCCC1CCN(C(=O)c2ccccc2)CC1)Nc1ccc2nccn2c1 | NAMPT (Homo sapiens, UniProt P43490) | 9.31 |

Record pIC50 per entry; entries follow.
1. CC(C)(C)OC(=O)N1CCC(c2ccc(C(=O)NCc3ccn4ccnc4c3)cc2)C1 (stereo not shown)
2. O=C(NCc1ccn2ccnc2c1)c1ccc(-c2cnn(CCN3CCOCC3)c2)s1
3. CCC(C)(C)C(=O)N1CCC(c2ccc(C(=O)NCc3ccn4ccnc4c3)cc2)CC1
4. O=C(NCc1ccn2ccnc2c1)c1ccc(C2CN(C(=O)c3cncs3)C2)cc1
5. O=C(NCc1cn2ccnc2cn1)c1ccc(C2CCN(C(=O)CC(F)(F)F)CC2)cc1

Result ::
1: 9.52; 2: 9.77; 3: 9.32; 4: 9.19; 5: 8.71

* * *

measuredOn: NAMPT (human, recombinant, C-terminally His-tagged) (Homo sapiens, UniProt P43490)
Sequence (P43490 whole entry): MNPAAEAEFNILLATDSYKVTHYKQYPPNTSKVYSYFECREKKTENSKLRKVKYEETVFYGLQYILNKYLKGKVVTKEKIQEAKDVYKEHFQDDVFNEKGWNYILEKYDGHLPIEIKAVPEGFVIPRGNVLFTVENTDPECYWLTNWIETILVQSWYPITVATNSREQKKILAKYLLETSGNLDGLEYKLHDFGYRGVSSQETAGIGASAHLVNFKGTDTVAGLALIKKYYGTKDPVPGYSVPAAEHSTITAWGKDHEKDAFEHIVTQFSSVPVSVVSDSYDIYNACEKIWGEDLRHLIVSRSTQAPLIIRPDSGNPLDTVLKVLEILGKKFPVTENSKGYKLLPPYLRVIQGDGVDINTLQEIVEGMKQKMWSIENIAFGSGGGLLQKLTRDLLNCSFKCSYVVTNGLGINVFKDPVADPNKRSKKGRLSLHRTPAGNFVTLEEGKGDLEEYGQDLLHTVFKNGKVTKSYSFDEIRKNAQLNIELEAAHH
measurementProtocol: Time-Resolved Fluorescence Resonance Energy Transfer (TR-FRET) Binding Assay of NAMPT
testSettings: without substrates; 6.8 nM NAMPT, 200 nM probe, 3 hours equilibration
Could you please report measured pIC50 for the items listed next?
One number for each entry, as −log10 of the molar value.

Previously resolved entries follow.
| chemSmiles | measuredOn | pIC50 |
| --- | --- | --- |
| COCCOCC(=O)N1CCC(CCCCNC(=O)Nc2ccc3nccn3c2)CC1 | NAMPT (human, recombinant, C-terminally His-tagged) (Homo sapiens, UniProt P43490) | 6.15 |
| O=C(NCc1ccn2ccnc2c1)c1ccc(C2CCN(C(=O)c3cc(F)ccc3F)CC2)cc1 | NAMPT (human, recombinant, C-terminally His-tagged) (Homo sapiens, UniProt P43490) | 7.24 |

Consider now this further compound.
response.value for O=C(NCc1ccn2ccnc2c1)c1ccc(C2=CCN(C(=O)CC3CC3)CC2)o1 (field: pIC50) = 5.82
